Tested on: Yap1 mRNA
Experiment: Antisense inhibition of human Yap1 in A-431 cells by cEt gapmers, single dose (Example 4, RTS4814)
Format: cell-based
Settings: Table 16; A-431 cells, 5,000 cells per well, free uptake, 2,000 nM, approximately 48 hours; RTS4814; normalized to RIBOGREEN; Yap1 mRNA relative to untreated control cells
Strand notation (5' to 3'): a small letter for the sugar, then the base; units joined by * are phosphorothioate-linked, units joined directly phosphodiester-linked; [ ] holds rarer units or linkages, { } end groups; capitals alone tell only the bases. k = constrained ethyl (cEt); [5mC] = 5-methylcytosine; d = 2'-deoxy (DNA)
The following substances are shown together with reported YAP1 (% UTC) values.
Please respond with the number in % UTC and leave the unit unwritten.

Below: 3 substances and their reported YAP1 (% UTC).
{"columns": ["SUBSTANCE", "STUDY SYSTEM", "VALUE UNITS", "YAP1 (% UTC)"],
 "data": [
  ["1076066 (k[5mC]*kA*kT*dA*dT*dA*dA*dG*dA*dT*dG*dT*dT*kT*kG*k[5mC]; antisense) [Compound 1076066]", "Yap1 mRNA", "% UTC", 8],
  ["1074338 (antisense kG*kG*kA*dT*dT*dT*dT*dG*dA*dG*dT*d[5mC]*d[5mC]*k[5mC]*kA*k[5mC]) [Compound 1074338]", "Yap1 mRNA", "% UTC", 77],
  ["1075650 (kA*kT*kA*dT*dT*dA*d[5mC]*dA*dA*dT*d[5mC]*d[5mC]*d[5mC]*kA*kG*k[5mC]; antisense) [Compound 1075650]", "Yap1 mRNA", "% UTC", 48]
]}

The value of YAP1 (% UTC) measured for the substance 1076098 (kT*kT*kA*d[5mC]*dA*dA*dT*dA*dA*dT*dA*dA*dA*k[5mC]*kG*kA; antisense) [Compound 1076098] turned out to be 94
